Numbers sourced from the supplement of paper PMC10567573.

B1: HESX1 (parent)
chain: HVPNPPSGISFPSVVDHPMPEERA

Variants of: B1
Experiment: protein stability index of a GFP-peptide fusion (GPS, HEK-293T) (PSI 1-6); higher = more stable;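 further: lentivirally expressed fusions sorted by FACS into six bins by GFP to DsRed ratio, PSI derived from sequencing read proportions per bin multiplied by bin number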
Conditions: c terminus: a fixed tail appended
In this section we review reported protein stability index values for a set of variants.
// print number alone

Please review the following examples before continuing.
Req: Quick one: protein stability index of P12S ?
Resp: 4.01

Req: Quick one: protein stability index of S13P ?
Resp: 2.73

Req: Quick one: protein stability index of E22Y ?
Resp: 2.68

Req: Quick one: protein stability index of S10D ?
Resp: 3.77

Then this variant:
Req: Quick one: protein stability index of I9C ?
Resp: 2.66
